Reference for the values: paper PMC5586252

Overview of recorded pKd for various binders
# System name: B′α regulatory subunit (UniProt Q15172 1-486)
# Sequence (Q15172 whole entry): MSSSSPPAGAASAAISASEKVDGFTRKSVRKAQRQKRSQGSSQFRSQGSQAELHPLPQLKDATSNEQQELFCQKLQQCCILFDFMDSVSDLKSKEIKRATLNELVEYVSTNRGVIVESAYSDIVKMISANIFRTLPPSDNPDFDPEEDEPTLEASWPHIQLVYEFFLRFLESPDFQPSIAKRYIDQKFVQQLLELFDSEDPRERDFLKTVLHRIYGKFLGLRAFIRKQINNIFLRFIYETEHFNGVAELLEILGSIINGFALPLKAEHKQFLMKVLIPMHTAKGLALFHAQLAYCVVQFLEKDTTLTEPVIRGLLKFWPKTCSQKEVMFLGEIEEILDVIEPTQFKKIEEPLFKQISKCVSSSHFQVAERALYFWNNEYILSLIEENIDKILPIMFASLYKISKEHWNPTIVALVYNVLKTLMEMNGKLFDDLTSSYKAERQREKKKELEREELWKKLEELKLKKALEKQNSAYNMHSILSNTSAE
# Measurement description: BLI
Where no end group is shown, it is not given here.
Lab note — pKd values are minus log10 of concentrations in M.

Study these solved cases before continuing.
// lookup pKd for QNQFSEHDKTLYRIPE [GST-tagged TJP1 peptide (B′-binding motif)]
6.31

Now consider FQHNRKLESVAEEHEI [GST-tagged KIAA1524 (CIP2A) peptide (B′-binding motif)] .
6.48

Now consider LSSIPEASEYDWRNYQ [GST-tagged C3orf67 peptide (B′-binding motif)] .
6.35

Now consider IKKLSPIIEDSREATH [GST-tagged BUB1B peptide (B′-binding motif)] .
6.65

Now consider YQPLECIVEETEGKLN (not fully specified) [GST-tagged ANKHD1 peptide (B′-binding motif)] .
5.96

***
// lookup pKd for HVLYPIPESSSDSPLA [GST-tagged STON1 peptide (B′-binding motif)]
4.93

Now consider KLPHVLSSIAEEEHHL [GST-tagged SYT16 peptide (B′-binding motif)] .
6.71
